Measured values drawn from paper PMC9161616 for this set.

- experiment: Plasma pharmacokinetics of FGF401 (noncompartmental) and food effect
- Format: in vivo, human
- assay conditions: human, plasma, oral, 150 mg, Cycle 1 day 8; 150 mg Fasted; n=6; geometric mean (CV%); read-out: T1/2 (converted)
assay endpoint: half-life (h)
Just the number in h, nothing appended.

half-life reading for COCCNc1cc(NC(=O)N2CCCc3cc(CN4CCN(C)CC4=O)c(C=O)nc32)ncc1C#N [FGF401, roblitinib] : 5.24

----------
- experiment: Plasma pharmacokinetics of FGF401 (noncompartmental) and food effect
- Type: in vivo, human
- assay conditions: human, plasma, oral, 80 mg, Cycle 1 day 8; 80 mg Fasted; n=6; geometric mean (CV%)
assay endpoint: Cmax (ng/mL)
Just the number in ng/mL, nothing appended.

Cmax reading for COCCNc1cc(NC(=O)N2CCCc3cc(CN4CCN(C)CC4=O)c(C=O)nc32)ncc1C#N : 838

----------
- experiment: Plasma pharmacokinetics of FGF401 (noncompartmental) and food effect
- Assay type: in vivo, human
- assay conditions: human, plasma, oral, 120 mg, Cycle 1 day 8; 120 mg Fasted; n=24; geometric mean (CV%); read-out: AUClast
- Procedure: Pharmacokinetic endpoints included plasma concentrations and PK parameters of FGF401 and spartalizumab. Pharmacokinetic parameters were determined with noncompartmental method(s) using Phoenix WinNonlin version 6.4 or above (Pharsight Corporation, Mountain View, Califormia, USA). Immunogenicity of spartalizumab was assessed through presence and/or concentration of anti-drug (spartalizumab) antibodies (ADA). […]
assay endpoint: AUC(0-t)
Report field: quantity (unit follows the number).

AUC(0-t) reading for COCCNc1cc(NC(=O)N2CCCc3cc(CN4CCN(C)CC4=O)c(C=O)nc32)ncc1C#N : 6480 ng·h/mL

----------
- experiment: Plasma pharmacokinetics of FGF401 (noncompartmental) and food effect
- Type: in vivo, human
- assay conditions: human, plasma, oral, cycle 2 day 1; read-out: median Tmax across phase 1 treatment groups
assay endpoint: Tmax

Tmax reading for COCCNc1cc(NC(=O)N2CCCc3cc(CN4CCN(C)CC4=O)c(C=O)nc32)ncc1C#N : 1.01 to 3.02 h

----------
- experiment: Plasma pharmacokinetics of FGF401 (noncompartmental) and food effect
- Assay type: in vivo, human
- assay conditions: human, plasma, oral, 80 mg, Cycle 1 day 8; 80 mg Fasted; n=6; geometric mean (CV%); read-out: T1/2 (converted)
assay endpoint: half-life (h)
Just the number in h, nothing appended.

half-life reading for COCCNc1cc(NC(=O)N2CCCc3cc(CN4CCN(C)CC4=O)c(C=O)nc32)ncc1C#N : 6.08

----------
- experiment: Plasma pharmacokinetics of FGF401 (noncompartmental) and food effect
- Type: in vivo, human
- assay conditions: human, plasma, oral, 50 mg, Cycle 1 day 8; 50 mg Fasted; n=7; geometric mean (CV%); read-out: AUC0-24h
assay endpoint: AUC(0-t)
Report field: quantity (unit follows the number).

AUC(0-t) reading for COCCNc1cc(NC(=O)N2CCCc3cc(CN4CCN(C)CC4=O)c(C=O)nc32)ncc1C#N [FGF401, roblitinib] : 3650 ng·h/mL

----------
- experiment: Plasma pharmacokinetics of FGF401 (noncompartmental) and food effect
- Type: in vivo, human
- assay conditions: human, plasma, oral, 120 mg, Cycle 1 day 8; 120 mg Fasted; n=24; geometric mean (CV%); read-out: AUC0-24h
assay endpoint: AUC(0-t)

AUC(0-t) reading for COCCNc1cc(NC(=O)N2CCCc3cc(CN4CCN(C)CC4=O)c(C=O)nc32)ncc1C#N : 6.97 µg·h/mL
